Reference source for all entries: patent US20210147455A1

- TEST: Stability experiments under 25° C.±2° C. and 65% R.H±5% R.H
- CONDITION PARAMETERS: month 12; 25° C./65% R.H

>  <COMPOUND>
CCC(C(C)OP(=O)([O-])[O-])n1ncn(-c2ccc(N3CCN(c4ccc(OCC5COC(Cn6cncn6)(c6ccc(F)cc6F)C5)cc4)CC3)cc2)c1=O.C[N+](C)(C)CCO.C[N+](C)(C)CCO.O.O.O.O.O (stereo not drawn) [Comparative Example 2]

>  <Description>
White

$$$$
>  <COMPOUND>
CC[C@@H]([C@H](C)OP(=O)(O)O)n1ncn(-c2ccc(N3CCN(c4ccc(OC[C@@H]5CO[C@@](Cn6cncn6)(c6ccc(F)cc6F)C5)cc4)CC3)cc2)c1=O [Example 1, Posaconazole Phosphate Monocholinate]

>  <Description>
White

$$$$
>  <COMPOUND>
CC[C@@H]([C@H](C)OP(=O)(O)O)n1ncn(-c2ccc(N3CCN(c4ccc(OC[C@@H]5CO[C@@](Cn6cncn6)(c6ccc(F)cc6F)C5)cc4)CC3)cc2)c1=O [Example 3]

>  <Description>
White

$$$$

====

- TEST: Solubility study
- CONDITION PARAMETERS: methanol, organic solvent or mixture
QUANTITY MEASURED: solubility (µg/mL)
Give bare numbers, in µg/mL.

## Task Fill blank: measured solubility of the compound CC[C@@H]([C@H](C)O)n1ncn(-c2ccc(N3CCN(c4ccc(OC[C@@H]5CO[C@@](Cn6cncn6)(c6ccc(F)cc6F)C5)cc4)CC3)cc2)c1=O [Posaconazole] is ____.
## Result 60

====

- TEST: Stability experiments under 40° C.±2° C. and 75% R.H±5% R.H (accelerated test)
- Format: physicochemical
- CONDITION PARAMETERS: month 6; 40° C./75% R.H
QUANTITY MEASURED: Content (%)
Give bare numbers, in %.

Examples with answers:
>  <COMPOUND>
CC[C@@H]([C@H](C)OP(=O)(O)O)n1ncn(-c2ccc(N3CCN(c4ccc(OC[C@@H]5CO[C@@](Cn6cncn6)(c6ccc(F)cc6F)C5)cc4)CC3)cc2)c1=O [Example 1, Posaconazole Phosphate Monocholinate]

>  <RESULT UNITS>
%

>  <VALUE REPORTED>
99.84

$$$$
>  <COMPOUND>
CC[C@@H]([C@H](C)OP(=O)(O)O)n1ncn(-c2ccc(N3CCN(c4ccc(OC[C@@H]5CO[C@@](Cn6cncn6)(c6ccc(F)cc6F)C5)cc4)CC3)cc2)c1=O [Example 3]

>  <RESULT UNITS>
%

>  <VALUE REPORTED>
99.85

$$$$
>  <COMPOUND>
CC[C@@H]([C@H](C)OP(=O)(O)O)n1ncn(-c2ccc(N3CCN(c4ccc(OC[C@@H]5CO[C@@](Cn6cncn6)(c6ccc(F)cc6F)C5)cc4)CC3)cc2)c1=O.N=C(N)NCCC[C@H](N)C(=O)O [Comparative Example 5, Posaconazole Phosphate Monoarginine Salt]

>  <RESULT UNITS>
%

>  <VALUE REPORTED>
99.37

$$$$

Now look at this one.
## Task // lookup Content for CCC(C(C)OP(=O)([O-])[O-])n1ncn(-c2ccc(N3CCN(c4ccc(OCC5COC(Cn6cncn6)(c6ccc(F)cc6F)C5)cc4)CC3)cc2)c1=O.C[N+](C)(C)CCO.C[N+](C)(C)CCO.O.O.O.O.O (stereo not shown) [Comparative Example 2]
## Result 99.64
